FYI, the data here is from patent US20210214410A1.

The reader will find reported pKd values listed item by item below.
Study target: human interleukin 13 receptor alpha 1 (IL-13Rα1), biotinylated ectodomain (human) (UniProt P78552)
Assay protocol: SPR (Biacore T100), biotinylated receptor on SA chip, equilibrium KD
Please treat pKd as minus the base-10 logarithm of the molar concentration.

Binder | Reported endpoint | Result value
IL-13 variant D7 (IL-13Rα2-selective IL-13 superkine; L10A, V18F, R86K, D87K, K89R, L101I, K104R, R108K) (ligand, the first is used here; also called polypeptide D7) PGPVPPSTAARELIEELFNITQNQKAPLCNGSMVWSINLTAGMYCAALESLINVSGCSAIEKTKRMLSGFCPHKVSAGQFPSLHVKKTRIEVAQFVKDLLIHLRKLFKEGQFNHHHHHH | pKd | 5.39

Fill in the blank: the reported pKd of C7 (ligand, also called IL-13 variant C7 (R11S, I14M, T88S, L101N, K105A, R108K)) cytokine: PGPVPPSTALSELMEELVNITQNQKAPLCNGSMVWSINLTAGMYCAALESLINVSGCSAIEKTQRMLSGFCPHKVSAGQFSSLHVRDSKIEVAQFVKDLLNHLKALFKEGQFN is ____.
4.46
